target: 5-HT2B (Homo sapiens, UniProt P41595); experiment: PDSP screening affinity 5-HT2B; type: binding; settings: read-out: 5-HT2B affinity
Sequence (P41595 whole entry): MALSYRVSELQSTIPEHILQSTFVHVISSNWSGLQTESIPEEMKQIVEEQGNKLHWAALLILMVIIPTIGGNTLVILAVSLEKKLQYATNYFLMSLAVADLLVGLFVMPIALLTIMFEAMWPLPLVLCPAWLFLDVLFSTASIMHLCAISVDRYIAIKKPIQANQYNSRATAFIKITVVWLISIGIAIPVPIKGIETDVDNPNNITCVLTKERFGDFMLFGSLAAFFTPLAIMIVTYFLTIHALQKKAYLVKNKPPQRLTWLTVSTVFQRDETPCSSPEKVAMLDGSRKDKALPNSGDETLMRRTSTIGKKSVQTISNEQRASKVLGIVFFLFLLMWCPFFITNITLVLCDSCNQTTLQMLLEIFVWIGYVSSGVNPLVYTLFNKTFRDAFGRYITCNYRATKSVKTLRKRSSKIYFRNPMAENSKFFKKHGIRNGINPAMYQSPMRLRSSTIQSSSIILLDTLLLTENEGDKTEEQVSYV
observed.property: Ki (nM)
Write down the numeric answer in nM and omit the unit.

Query: // Ki lookup, key: COc1ccc2[nH]cc(CCNCc3cccc(C)c3)c2c1
Reply: 1.9

* * *

target: h5-HT2A (Homo sapiens); experiment: Ca2+ mobilization assay; format: cell-based; details: HEK293, read-out: h5-HT2A Emax, percentage of the maximum response to 5-HT
Sequence (P28223 whole entry): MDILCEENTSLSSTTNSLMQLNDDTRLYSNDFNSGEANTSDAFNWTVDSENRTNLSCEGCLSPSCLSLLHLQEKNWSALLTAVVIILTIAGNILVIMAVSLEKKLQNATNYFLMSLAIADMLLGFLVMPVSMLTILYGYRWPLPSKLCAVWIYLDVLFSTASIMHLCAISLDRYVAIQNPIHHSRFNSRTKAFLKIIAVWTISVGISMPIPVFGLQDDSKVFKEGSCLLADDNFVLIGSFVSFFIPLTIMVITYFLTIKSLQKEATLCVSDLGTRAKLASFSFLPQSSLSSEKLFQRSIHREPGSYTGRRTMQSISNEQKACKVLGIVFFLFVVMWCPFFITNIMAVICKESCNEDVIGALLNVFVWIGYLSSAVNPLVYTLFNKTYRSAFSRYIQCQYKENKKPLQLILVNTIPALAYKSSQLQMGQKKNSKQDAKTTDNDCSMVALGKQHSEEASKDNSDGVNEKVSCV
Assign Emax to each entry below.
# value in %; strip the unit string

Query: For the compound shown here, COc1cccc(CNCCc2cc(OC)c(I)cc2OC)c1 [Compound 4a] , give the reported Emax.
Reply: 71.6

Query: Quick check: Emax of COc1ccc2[nH]cc(CCNCc3cccc(Cl)c3)c2c1 [Compound 5h] ?
Reply: 81.2

Query: Using the record for COc1ccc2[nH]cc(CCNCc3cccc(F)c3)c2c1 [Compound 5g] , report its Emax.
Reply: 89.3

Query: Field request: Emax | item: COc1cccc(CNCCc2c[nH]c3ccc(OC)cc23)c1 [Compound 5b]
Reply: 70

Query: Which value of Emax has been reported for COc1ccc2[nH]cc(CCNCc3cccc(C(F)(F)F)c3)c2c1 [Compound 5k] in the records?
Reply: 75.5

Query: # lookup: Emax of COc1cc(CCNCc2ccccc2OC)c(OC)cc1I [Compound 1]
Reply: 86.4

Query: Form field: reported Emax of COc1ccc(CNCCc2c[nH]c3ccc(OC)cc23)cc1 [Compound 5c]
Reply: 84.1

Query: Quick one: Emax for COc1ccc2[nH]cc(CCNCc3ccccc3Br)c2c1 [Compound 5d] ?
Reply: 74.7

Query: Bench note: what Emax did COc1ccc2[nH]cc(CCNCc3ccc(Br)cc3)c2c1 [Compound 5f] show?
Reply: 90.3

Query: What measured Emax goes with COc1cc(CCNCc2cccc(Br)c2)c(OC)cc1I [Compound 4d] ?
Reply: 87.5

* * *

target: h5-HT2C (Homo sapiens, UniProt P28335); assay: Ca2+ mobilization assay; type: cell-based; conditions: read-out: h5HT2C EC50; Ca2+ mobilization
Sequence (P28335 33-458): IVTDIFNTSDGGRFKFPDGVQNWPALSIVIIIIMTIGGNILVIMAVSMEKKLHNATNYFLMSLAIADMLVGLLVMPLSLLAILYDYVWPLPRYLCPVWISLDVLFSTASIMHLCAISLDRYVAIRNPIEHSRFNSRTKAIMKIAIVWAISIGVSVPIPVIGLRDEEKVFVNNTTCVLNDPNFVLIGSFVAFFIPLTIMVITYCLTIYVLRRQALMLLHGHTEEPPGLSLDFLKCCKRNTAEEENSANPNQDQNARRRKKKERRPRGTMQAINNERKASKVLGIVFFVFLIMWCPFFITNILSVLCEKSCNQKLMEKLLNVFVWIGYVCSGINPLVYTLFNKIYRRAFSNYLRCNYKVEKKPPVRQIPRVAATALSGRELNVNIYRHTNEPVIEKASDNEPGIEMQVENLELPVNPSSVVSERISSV
observed.property: EC50 (µM)
Kindly answer with a numeric value in µM, unit omitted.

Query: Endpoint output: EC50 of COc1ccc2[nH]cc(CCNCc3cccc(C)c3)c2c1 [Compound 5j] . Value?
Reply: 0.289

* * *

biological target: h5-HT2A (Homo sapiens); assay: Ca2+ mobilization assay; type: cell-based; conditions: HEK293, read-out: h5-HT2A Emax, percentage of the maximum response to 5-HT
observed.property: Emax (%)
Provide only the numeric value, understood in %.

Query: Given COc1cc(CCNCc2ccccc2Br)c(OC)cc1I , state its recorded Emax.
Reply: 88

Query: Name the recorded Emax for COc1ccc(CNCCc2cc(OC)c(I)cc2OC)cc1 .
Reply: 74.1

Query: Which Emax is listed for COc1ccc2[nH]cc(CCNCc3cccc(Br)c3)c2c1 ?
Reply: 73.8

Query: What value of measured Emax is listed for COc1ccc2[nH]cc(CCNCc3cccc(SC)c3)c2c1 ?
Reply: 46.9

Query: Entry COc1cc(CCNCc2ccc(Br)cc2)c(OC)cc1I : reported Emax = ?
Reply: 88

Query: Item COc1ccc2[nH]cc(CCNCc3cccc(I)c3)c2c1 has what recorded Emax?
Reply: 79

* * *

molecular target: UniProt P14842; assay: Ca2+ mobilization assay; assay type: cell-based; details: read-out: r5-HT2A Emax, percentage of the maximum response to 5-HT
Sequence (P14842 whole entry): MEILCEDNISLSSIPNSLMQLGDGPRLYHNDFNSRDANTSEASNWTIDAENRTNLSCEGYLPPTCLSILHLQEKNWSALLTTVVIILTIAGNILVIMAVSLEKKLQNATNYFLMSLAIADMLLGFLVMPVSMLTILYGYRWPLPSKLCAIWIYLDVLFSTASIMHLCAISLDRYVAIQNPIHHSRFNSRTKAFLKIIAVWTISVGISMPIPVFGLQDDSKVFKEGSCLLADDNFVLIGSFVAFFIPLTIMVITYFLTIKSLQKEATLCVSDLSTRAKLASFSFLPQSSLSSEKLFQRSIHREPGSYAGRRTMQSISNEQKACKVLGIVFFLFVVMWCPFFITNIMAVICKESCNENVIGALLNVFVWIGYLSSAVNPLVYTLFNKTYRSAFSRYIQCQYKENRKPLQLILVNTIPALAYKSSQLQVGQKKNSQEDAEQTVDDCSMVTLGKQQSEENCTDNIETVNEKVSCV
observed.property: Emax (%)
Supply the numeric figure in %, leaving out any unit text.

Query: Using the record for COc1ccc2[nH]cc(CCNCc3cccc(C(F)(F)F)c3)c2c1 [Compound 5k] , report its Emax.
Reply: 69.6

Query: Which Emax is listed for COc1ccc(CNCCc2c[nH]c3ccc(OC)cc23)cc1 [Compound 5c] ?
Reply: 75

Query: Which Emax reading was recorded for the molecule COc1ccc2[nH]cc(CCNCc3ccccc3OC)c2c1 [Compound 5a] ?
Reply: 80.9

Query: Reported Emax, molecule COc1ccc2[nH]cc(CCNCc3cccc(Cl)c3)c2c1 [Compound 5h] : ____
Reply: 70.1

Query: What does the data say about its Emax? Entry: COc1ccc2[nH]cc(CCNCc3cccc(I)c3)c2c1 [Compound 5i]
Reply: 73.4

Query: Dear colleague, I am looking for the recorded Emax of the following molecule: COc1cccc(CNCCc2cc(OC)c(I)cc2OC)c1 [Compound 4a]
Reply: 51.7

Query: Which Emax reading was recorded for the molecule COc1ccc2[nH]cc(CCNCc3ccccc3Br)c2c1 [Compound 5d] ?
Reply: 49.7

Query: Report Emax for COc1cccc(CNCCc2c[nH]c3ccc(OC)cc23)c1 [Compound 5b] please.
Reply: 52.2

Query: For COc1ccc(CNCCc2cc(OC)c(I)cc2OC)cc1 [Compound 4b] , what is its reported Emax?
Reply: 53.8

Query: Would you kindly share the measured Emax for COc1cc(CCNCc2ccccc2Br)c(OC)cc1I [Compound 4c] ?
Reply: 65.6

Query: What value of measured Emax is listed for COc1ccc2[nH]cc(CCNCc3cccc(Br)c3)c2c1 [Compound 5e] ?
Reply: 65.5

Query: Can you share its Emax? I mean this molecule: COc1cc(CCNCc2ccc(Br)cc2)c(OC)cc1I [Compound 4e]
Reply: 67.3

Query: Fill blank: measured Emax of the molecule COc1ccc2[nH]cc(CCNCc3ccc(Br)cc3)c2c1 [Compound 5f] is ____.
Reply: 77.6

Query: Emax; subject: COc1ccc2[nH]cc(CCNCc3cccc(SC)c3)c2c1 [Compound 5l]
Reply: 32

Query: May I ask what Emax has been recorded for COc1ccc2[nH]cc(CCNCc3cccc(F)c3)c2c1 [Compound 5g] ?
Reply: 69.1

* * *

target: h5-HT2C (Homo sapiens, UniProt P28335); test: Ca2+ mobilization assay; assay type: cell-based; settings: h5HT2C EC50, Ca2+ mobilization
For each record, write down the corresponding EC50.
Dear colleague, please return just the value in nM, with no unit written.

Query: What reported EC50 corresponds to COc1ccc2[nH]cc(CCNCc3ccc(Br)cc3)c2c1 on h5-HT2C (Homo sapiens, UniProt P28335)?
Reply: 529

Query: Value wanted: EC50 (h5-HT2C (Homo sapiens, UniProt P28335)) of entry COc1cc(CCNCc2ccc(Br)cc2)c(OC)cc1I
Reply: 200

Query: Given the entry COc1ccc2[nH]cc(CCNCc3cccc(I)c3)c2c1 , what EC50 was observed with h5-HT2C (Homo sapiens, UniProt P28335)?
Reply: 445

Query: Form: Entry = COc1ccc(CNCCc2cc(OC)c(I)cc2OC)cc1 | System = h5-HT2C (Homo sapiens, UniProt P28335) | EC50 = ____
Reply: 43.2

Query: Please tell me: EC50 of COc1cccc(CNCCc2c[nH]c3ccc(OC)cc23)c1 , system h5-HT2C (Homo sapiens, UniProt P28335)?
Reply: 178

Query: Recall the recorded EC50 for COc1ccc2[nH]cc(CCNCc3cccc(Br)c3)c2c1 with h5-HT2C (Homo sapiens, UniProt P28335) and state it.
Reply: 321

Query: Record lookup: for h5-HT2C (Homo sapiens, UniProt P28335), what EC50 belongs to COc1cccc(CNCCc2cc(OC)c(I)cc2OC)c1 ?
Reply: 33.8

Query: What reported EC50 corresponds to COc1cc(CCNCc2ccccc2Br)c(OC)cc1I on h5-HT2C (Homo sapiens, UniProt P28335)?
Reply: 57.6

Query: Param readout = EC50; param system = h5-HT2C (Homo sapiens, UniProt P28335); param query = COc1cc(CCNCc2ccccc2OC)c(OC)cc1I ; response: value
Reply: 41.7

Query: For the record COc1ccc2[nH]cc(CCNCc3ccccc3Br)c2c1 , what value of EC50 is listed for h5-HT2C (Homo sapiens, UniProt P28335)?
Reply: 439

Query: Give the reported EC50 for COc1ccc(CNCCc2c[nH]c3ccc(OC)cc23)cc1 (system: h5-HT2C (Homo sapiens, UniProt P28335)).
Reply: 75.1

Query: Given the entry COc1ccc2[nH]cc(CCNCc3cccc(Cl)c3)c2c1 , what EC50 was observed with h5-HT2C (Homo sapiens, UniProt P28335)?
Reply: 316

Query: Observed EC50 on h5-HT2C (Homo sapiens, UniProt P28335) for COc1ccc2[nH]cc(CCNCc3cccc(F)c3)c2c1 , please.
Reply: 192

Query: Under h5-HT2C (Homo sapiens, UniProt P28335): EC50 value of COc1ccc2[nH]cc(CCNCc3cccc(C(F)(F)F)c3)c2c1 ?
Reply: 512

Query: Entry COc1ccc2[nH]cc(CCNCc3ccccc3OC)c2c1 , system h5-HT2C (Homo sapiens, UniProt P28335): what EC50 was measured?
Reply: 57.1

Query: Under h5-HT2C (Homo sapiens, UniProt P28335): EC50 value of COc1ccc2[nH]cc(CCNCc3cccc(SC)c3)c2c1 ?
Reply: 283
